# assayed_system: recombinant human nectin-4 (Homo sapiens, UniProt Q96NY8)
# Construct: close to the value determined for the complete extracellular domain of nectin-4 (0.94 nM); purchased R&D Systems 2659-N4
# Sequence (Q96NY8 32-349 limits assumed): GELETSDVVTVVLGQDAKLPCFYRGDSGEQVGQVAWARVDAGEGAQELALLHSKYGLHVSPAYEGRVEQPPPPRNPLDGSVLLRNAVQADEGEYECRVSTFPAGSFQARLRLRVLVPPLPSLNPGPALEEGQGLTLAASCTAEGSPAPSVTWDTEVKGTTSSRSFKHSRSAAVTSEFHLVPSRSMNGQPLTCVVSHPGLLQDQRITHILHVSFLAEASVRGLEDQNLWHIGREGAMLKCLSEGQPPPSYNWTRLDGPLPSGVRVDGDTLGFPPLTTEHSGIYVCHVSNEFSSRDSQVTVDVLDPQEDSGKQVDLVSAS
# test: FA-based competitive binding assay with probe 1a
# conditions_used: competitive binding curve, variable slope
measured_parameter: Hill coefficient n

Recall the reported Hill coefficient n of CSCC[C@@H]1NC(=O)[C@@H]2CSCCC(=O)N3CN(CN(C3)C(=O)CCSC[C@H](NC(=O)CN3CCN(CC(=O)O)CCN(CC(=O)O)CCN(CC(=O)O)CC3)C(=O)N3CCC[C@H]3C(=O)N[C@@H](Cc3cccc4ccccc34)C(=O)N[C@H](CC(=O)O)C(=O)N2)C(=O)CCSCC(C(N)=O)NC(=O)[C@H](Cc2c[nH]c3ccccc23)NC(=O)[C@@H]2C[C@@H](O)CN2C(=O)[C@@H]2CCCN2C(=O)[C@H]([C@@H](C)O)NC(=O)[C@H](CO)NC(=O)[C@H](Cc2c[nH]c3ccccc23)NC(=O)[C@H](CC(=O)O)NC(=O)[C@H](CCCCNC(=N)N)NC1=O (stereo partly shown) when tested on recombinant human nectin-4 (Homo sapiens, UniProt Q96NY8).
1.18
